experiment: Pharmacokinetic study of nine absorbed components in rat serum after oral RMC extract (UHPLC-DAD); conditions: male, Sprague-Dawley, rat, serum, po, 10 mL/kg, Cmax, BHS-RMC group (BHS model rats), serum, oral RMC extract 10 mL/kg (equal to 6 g/mL of RMC) once a day for 7 days, n = 6;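 further: BHS model made by subcutaneous yeast suspension then two adrenaline injections with ice-water immersion, normal rats given saline instead, serum analytes quantified by UHPLC-DAD at 254 nm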
This section presents compounds with their documented log10 of Cmax values.
propertyName: log10 of Cmax (log10 of the value in µg/mL)

>>> recordedresult("O=C(O)c1ccccc1")
2.33
>>> recordedresult("COC(=O)c1ccc(O)cc1")
0.33
>>> recordedresult("O=C(O)c1cc(O)c(O)c(O)c1")
2.26
>>> recordedresult("COc1ccc(C(C)=O)c(O)c1")
1.02
>>> recordedresult("O=c1c(O)c(-c2ccc(O)c(O)c2)oc2cc(O)cc(O)c12")
2.87
>>> recordedresult("C[C@@]12C[C@@]3(O)O[C@@H](O1)[C@]1(COC(=O)c4ccccc4)[C@H]3C[C@@]12O[C@@H]1O[C@H](CO)[C@@H](O)[C@H](O)[C@H]1O")
1.93
>>> recordedresult("Cc1oc2c(O)cccc2c(=O)c1O [3,8-Dihydroxy-2-methylchromone, 3,8-dihydroxy-2-methylchromone]")
2.13
>>> recordedresult("O=Cc1ccc(CO)o1 [5-HMF, 5-hydroxymethylfurfural]")
2.05
